# Assay system: Cytochrome P450 2C9 (Homo sapiens) (UniProt P11712)
# Sequence (P11712 whole entry, looked up): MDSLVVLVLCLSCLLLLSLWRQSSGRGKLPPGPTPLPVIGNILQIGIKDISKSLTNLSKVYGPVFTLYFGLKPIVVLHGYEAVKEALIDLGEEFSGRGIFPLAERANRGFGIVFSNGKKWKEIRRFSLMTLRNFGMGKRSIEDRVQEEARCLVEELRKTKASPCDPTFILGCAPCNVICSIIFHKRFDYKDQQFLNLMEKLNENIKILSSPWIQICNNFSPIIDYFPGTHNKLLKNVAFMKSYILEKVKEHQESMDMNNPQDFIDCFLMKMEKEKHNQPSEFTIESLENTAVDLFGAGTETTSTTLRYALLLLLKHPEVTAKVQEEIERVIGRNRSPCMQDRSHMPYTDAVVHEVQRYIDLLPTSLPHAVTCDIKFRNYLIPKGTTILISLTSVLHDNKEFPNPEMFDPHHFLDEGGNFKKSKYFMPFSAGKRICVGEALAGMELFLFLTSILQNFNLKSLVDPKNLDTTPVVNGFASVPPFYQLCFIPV
# Protocol notes: qHTS Assay for Inhibitors and Substrates of Cytochrome P450 2C9 (AID 883); also: nearly all actives have a fitted effect of over 60% in size
# Study conditions: recombinant CYP2C9, luciferin-H luminescence, 60 min; series mostly up to 57.1 µM
Inconclusive results are not listed. Activity calls are given as the source filed them. Calls follow the shape of the dose curve; as a rule, active = well fitted inhibition curve with a large enough effect; inconclusive = small, poorly fitted or top-dose-only effect; inactive = no such curve, though single readings can be large or run the other way.
Use one of these outcomes when replying: YES = active, NO = inactive

{"Molecule": "CC(C)C[C@H](NC(=O)[C@@H](NC(=O)N[C@@H](Cc1ccccc1)C(=O)O)[C@H]1CCN=C(N)N1)C(=O)N[C@H](C=O)Cc1ccccc1", "Answer label": "NO"}
{"Molecule": "NCCC[C@@H](CC(=O)N[C@@H]1CCCC[C@H]1C(=O)N[C@H](CC(=O)N[C@@H](CCC(=O)O)CC(=O)O)Cc1c[nH]c2ccccc12)NC(=O)C[C@H](Cc1c[nH]c2ccccc12)NC(=O)[C@@H]1CNCC[C@H]1N", "Answer label": "NO"}
{"Molecule": "CC(C)[C@@H](CC(=O)N[C@@H]1CCNC[C@H]1C(=O)N[C@H](CC(=O)N[C@@H](CCC(=O)O)CC(=O)O)Cc1c[nH]c2ccccc12)NC(=O)C[C@H](Cc1ccccc1)NC(=O)[C@@H]1CNCC[C@H]1N", "Answer label": "NO"}
{"Molecule": "COC(=O)N[C@H](c1ccccc1)[C@@]1(C)C[C@@H]1[C@@H](C)C(=O)Nc1ccc2ccccc2c1", "Answer label": "YES"}
{"Molecule": "CCCCCCN(C(=O)CCCCCN1C(=O)NC(c2ccc(-c3ccccc3)cc2)C(C(=O)OCc2ccccc2)=C1C)C(C(=O)NCCCC)c1ccc(OCC(=O)OC)c(C(=O)OC)c1 (stereo not drawn)", "Answer label": "YES"}

Q: Any idea what this test logged for CC(C)C[C@@H](CC(=O)N[C@@H](CCC(=O)O)CC(=O)O)NC(=O)[C@@H]1CCCC[C@H]1NC(=O)C[C@@H](NC(=O)C[C@H](Cc1ccccc1)NC(=O)[C@@H]1CCCC[C@H]1N)C(C)C ?
A: NO

Q: Try COC(=O)[C@@]1(Cc2ccc(F)cc2)[C@H]2c3cc(C(=O)N4CCCC4)n(CCN4CNCC4=O)c3C[C@H]2CN1C(=O)c1ccccc1 next.
A: YES

Q: Would you mind doing CC(C)C[C@@H](CC(=O)N[C@@H](CCC(=O)O)CC(=O)O)NC(=O)[C@@H]1CNCC[C@H]1NC(=O)C[C@@H](NC(=O)C[C@H](Cc1c[nH]c2ccccc12)NC(=O)[C@@H]1CCCC[C@H]1N)C(C)C as well?
A: NO

Q: Try the molecule C=C1CC[C@H]2C(C)(C)[C@H](O)CC[C@]2(C)[C@@H]1COc1ccc2ccc(=O)oc2c1
A: YES

Q: What about this molecule? C[C@H](O)[C@H](O)[C@@H](O)c1cnc2nc(N)[nH]c(=O)c2n1
A: NO

Q: Try the molecule C=C1CC[C@@H]2[C@](C)(CC[C@@H](O)[C@]2(C)CO)[C@@H]1C/C=C1/C(=O)OC[C@H]1O
A: NO

Q: How about COc1cc2oc(-c3ccccc3)cc(=O)c2cc1O ?
A: NO

Q: Can you handle Cc1c(C(=O)O)c(O)cc2c1C(=O)c1c(O)c([C@@H]3O[C@H](CO)[C@@H](O)[C@H](O)[C@@H]3O)c(O)c(O)c1C2=O next?
A: NO

====

# Protocol notes: Stat Signaling Pathway (AID 446);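 also: ME-180 cervical cancer cells given 40 pM IL-6 alongside compound; SIE-controlled beta-lactamase reporter measured as 460/530 nm FRET emission ratio; % is scaled to controls: 0 for no effect and ±100 for the full control effect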
# Study conditions: ME-180 (cervical carcinoma) SIE beta-lactamase reporter, IL-6 stimulated, 5 h; at 17.2 µM (top of the series) unless noted
Results filed as inconclusive are left out.
Measured attribute: activity, negative = inhibition (%)
Enter your answer as a number in %; do not include the unit.

{"Molecule": "COc1cccc(NC(=O)c2cc(C(=O)Nc3cccc(OC)c3)n(C)n2)c1", "Result unit": "%", "activity, negative = inhibition": -3.92}

Q: Requested read-out: activity, negative = inhibition. Entry: C=CCOc1nc2c(c(=O)n(C)c(=O)n2C)n1Cc1ccc(Cl)cc1Cl
A: -16.6

Q: # iterate: COc1ccc(C2Nc3ccccc3C(=O)N2Cc2ccco2)cc1CN1C(=O)c2ccccc2C1=O (stereo unspecified)
A: -19.4

====

# Assay system: Glucocorticoid receptor (Homo sapiens) (UniProt P04150)
# Sequence (P04150 whole entry, looked up): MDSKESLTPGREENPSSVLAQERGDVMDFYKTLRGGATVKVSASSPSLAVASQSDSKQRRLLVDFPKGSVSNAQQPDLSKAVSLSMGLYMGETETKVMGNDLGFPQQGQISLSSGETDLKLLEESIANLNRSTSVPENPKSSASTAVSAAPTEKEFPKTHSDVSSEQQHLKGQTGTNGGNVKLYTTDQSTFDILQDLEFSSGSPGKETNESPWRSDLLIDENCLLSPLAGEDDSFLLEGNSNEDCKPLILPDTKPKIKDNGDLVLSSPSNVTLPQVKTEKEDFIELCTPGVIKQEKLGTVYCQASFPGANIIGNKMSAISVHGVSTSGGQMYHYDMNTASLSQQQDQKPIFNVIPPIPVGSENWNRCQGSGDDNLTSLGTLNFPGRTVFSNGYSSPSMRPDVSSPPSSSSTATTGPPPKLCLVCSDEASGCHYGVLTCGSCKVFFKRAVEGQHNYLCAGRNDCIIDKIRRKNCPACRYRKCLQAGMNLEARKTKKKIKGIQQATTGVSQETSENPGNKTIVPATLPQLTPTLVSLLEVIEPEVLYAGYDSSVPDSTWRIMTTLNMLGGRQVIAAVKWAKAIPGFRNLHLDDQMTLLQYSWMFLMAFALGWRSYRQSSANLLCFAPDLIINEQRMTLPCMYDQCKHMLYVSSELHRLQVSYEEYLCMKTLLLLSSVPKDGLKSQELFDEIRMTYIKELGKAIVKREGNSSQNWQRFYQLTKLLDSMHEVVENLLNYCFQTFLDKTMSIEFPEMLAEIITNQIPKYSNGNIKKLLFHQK
# Protocol notes: GR-GFP Redistribution (AID 450)
# Study conditions: U2OS GR-GFP nuclear translocation, laser cytometry, 2 h; series mostly up to 20.6 µM
Activity calls are given as the source filed them.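 Rule for the calls: active = compounds whose dose series gives a full or clear partial fitted curve of increased nuclear translocation; inconclusive = weak partial curve or effect only at the top dose; inactive = no dose-dependent translocation response.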
Your answer must be one of the following: active, inactive

Observe how each entry below is paired with its result.
{"Molecule": "N#Cc1nc(-c2ccccc2Cl)oc1N1CCCCC1", "Answer label": "inactive"}
{"Molecule": "O=C(CN1C(=O)c2ccccc2C1=O)OCN1C(=O)c2ccccc2C1=O", "Answer label": "inactive"}
{"Molecule": "COc1ccc2c(c1OC)C(=O)N1c3ccccc3SC21 (centres undefined)", "Answer label": "inactive"}

Q: Query: recorded result category for c1coc(-c2nnc3sc(-c4cccs4)nn23)c1 in this test
A: inactive

Q: // repeat for CCOC(=O)C1=C(C)NC(C)=C(C(=O)OC)[C@H]1c1cccc(Cl)c1Cl and report
A: inactive

Q: How about CCOC(=O)Cn1c(SC)nc2sc3c(c2c1=O)CC(C)(C)OC3 ?
A: inactive

Q: Now the same for CC(C)NC(=O)N1CCOCCOCCN(C(=O)NC(C)C)CCOCCOCC1
A: inactive

Q: Same for Oc1ccc2c(c1)C1CCCC1(N1CCOCC1)O2 (centres undefined)
A: inactive

Q: Next entry: Nc1ccc2c3c(cccc13)CC2
A: active

Q: Input CC(=O)c1cccc(N=C2NC(=O)C(CO)(CO)S2)c1
A: inactive

Q: Also CCOC(=O)NC(Nc1cc(C)on1)(C(F)(F)F)C(F)(F)F , if possible.
A: inactive

Q: Further, for Fc1ccccc1-c1nc(NCCCN2CCOCC2)c2ccccc2n1 ?
A: inactive

Q: Now try c1ccc(N2CCN(c3nc(-c4ccccn4)nc4ccccc34)CC2)cc1 .
A: inactive

Q: Would you kindly repeat that for CC1CC(C(F)(F)F)n2ncnc2N1 (centres undefined) ?
A: inactive

Q: Now consider O=C(NCCO)c1cccc2c1C(=O)c1ccccc1-2 and answer again.
A: inactive

====

# Test system: CP286
# Protocol notes: qHTS profiling for inhibitors of Plasmodium falciparum proliferation (AID 504749); also: nearly all actives have a fitted effect of over 60% in size
# Study conditions: P. falciparum in erythrocytes, SYBR Green DNA, 72 h; series mostly up to 28.7 µM
Records with an inconclusive call do not appear. The source made the active and inactive calls. Calls come from the whole dose curve; as a rule, active = well fitted inhibition curve with a large enough effect; inconclusive = small, poorly fitted or top-dose-only effect; inactive = flat fitted curve, though single readings scatter.
Hello, when you answer, please use one of the following outcomes: active, inactive

These recorded examples may help you get a feel for the data.
{"Molecule": "CCC(=O)O[C@]1(C(=O)CCl)[C@@H](C)CC2C3C[C@H](F)C4=CC(=O)C=CC4(C)[C@@]3(F)C(O)CC21C (stereo partly specified)", "Assay system": "CP286", "Answer label": "active"}
{"Molecule": "O=C(O)c1ccc(N[C@@H]2OC[C@@H](O)[C@@H](O)[C@@H]2O)cc1", "Assay system": "CP286", "Answer label": "inactive"}
{"Molecule": "CC[C@@]1(O)C[C@H](O[C@H]2C[C@@H](N(C)C)[C@@H](O[C@H]3C[C@@H](O)[C@@H](O[C@H]4CCC(=O)[C@@H](C)O4)[C@@H](C)O3)[C@@H](C)O2)c2c(cc3c(c2O)C(=O)c2c(O)cccc2C3=O)[C@H]1C(=O)OC", "Assay system": "CP286", "Answer label": "active"}
{"Molecule": "C[C@H](O)[C@@H]1C(=O)N2C(C(=O)O)=C(SCCN=CN)C[C@@H]12", "Assay system": "CP286", "Answer label": "inactive"}

Q: Query: recorded result category for CN1[C@@H]2CC[C@@H]1CC(OC(=O)[C@H](CO)c1ccccc1)C2 (stereo partly specified) in this test
A: inactive

Q: Another molecule to look at: CC[C@]1([C@H]2O[C@@H]([C@@H]3O[C@](O)(CO)[C@@H](C)C[C@H]3C)C[C@H]2C)CC[C@@H]([C@]2(C)CC[C@@]3(C[C@@H](O)[C@@H](C)[C@@H]([C@H](C)[C@H](OC)[C@H](C)C(=O)O)O3)O2)O1
A: active

====

# Assay system: Cytochrome P450 1A2 (Homo sapiens) (UniProt P05177)
# Sequence (P05177 whole entry, looked up): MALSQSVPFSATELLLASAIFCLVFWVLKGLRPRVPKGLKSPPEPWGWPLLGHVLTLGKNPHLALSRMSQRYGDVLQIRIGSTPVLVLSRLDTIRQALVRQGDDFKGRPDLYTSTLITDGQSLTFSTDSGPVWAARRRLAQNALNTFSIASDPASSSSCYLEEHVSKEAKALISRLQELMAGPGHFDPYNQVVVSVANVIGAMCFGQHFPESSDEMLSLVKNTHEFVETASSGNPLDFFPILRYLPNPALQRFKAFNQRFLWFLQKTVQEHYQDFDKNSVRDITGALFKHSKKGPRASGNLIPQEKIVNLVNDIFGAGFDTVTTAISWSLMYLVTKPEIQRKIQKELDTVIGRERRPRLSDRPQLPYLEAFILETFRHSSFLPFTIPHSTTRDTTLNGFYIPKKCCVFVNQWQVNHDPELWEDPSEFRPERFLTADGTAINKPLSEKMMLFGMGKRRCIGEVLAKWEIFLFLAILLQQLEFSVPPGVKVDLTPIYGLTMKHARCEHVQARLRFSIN
# Protocol notes: p450-cyp1a2 (AID 410);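 also: -100% = full effect of reference inhibitor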
# Study conditions: recombinant CYP1A2, luciferin-ME demethylation, luminescence; series mostly up to 57 µM
Inconclusive results are not listed. Calls of active or inactive are those of the source. Calls come from the whole dose curve.
Result category, one only: active, inactive

Q: Test call, this molecule: CC(C)[C@@H](CC(=O)N[C@@H]1CCNC[C@H]1C(=O)N[C@H](CC(=O)N[C@@H](CCC(=O)O)CC(=O)O)Cc1ccccc1)NC(=O)C[C@H](CO)NC(=O)[C@@H]1CCCC[C@H]1N
A: inactive

Taken from PubChem BioAssay (NCATS).
